study-system: T1, B-cat-Halo (beta-catenin HaloTag construct expressed in HEK293 cells) (UniProt P35222 1-781)
T1 sequence (looked up): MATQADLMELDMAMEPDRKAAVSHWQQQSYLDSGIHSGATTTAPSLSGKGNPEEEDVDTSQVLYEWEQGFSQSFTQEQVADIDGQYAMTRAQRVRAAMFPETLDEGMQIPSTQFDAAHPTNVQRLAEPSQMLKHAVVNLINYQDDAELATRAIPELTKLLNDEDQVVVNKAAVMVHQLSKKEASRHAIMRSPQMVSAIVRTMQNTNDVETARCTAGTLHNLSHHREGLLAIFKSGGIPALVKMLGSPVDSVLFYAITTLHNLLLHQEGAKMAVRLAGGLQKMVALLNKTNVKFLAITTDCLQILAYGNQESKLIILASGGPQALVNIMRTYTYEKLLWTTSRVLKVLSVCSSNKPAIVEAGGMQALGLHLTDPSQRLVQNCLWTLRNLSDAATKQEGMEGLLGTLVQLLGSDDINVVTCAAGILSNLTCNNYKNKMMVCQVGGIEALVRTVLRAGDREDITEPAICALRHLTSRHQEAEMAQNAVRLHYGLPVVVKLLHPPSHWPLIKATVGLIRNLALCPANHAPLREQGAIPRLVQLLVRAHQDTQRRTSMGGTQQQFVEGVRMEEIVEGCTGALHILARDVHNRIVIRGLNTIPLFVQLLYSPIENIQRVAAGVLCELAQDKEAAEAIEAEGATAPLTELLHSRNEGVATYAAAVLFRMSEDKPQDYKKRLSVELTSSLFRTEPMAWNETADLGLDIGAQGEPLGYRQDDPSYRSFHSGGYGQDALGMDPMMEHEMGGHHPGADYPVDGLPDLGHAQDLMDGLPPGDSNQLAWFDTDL
test-method-notes: cell-based or functional assay
Starred links: 1 amine or outer side, 2 acyl side, 3 side chain; linkers in the order of their positions; H or OH if unused. Positions of bridges follow the written chain, without caps; N, C: chain ends. Non-standard residues stand in square brackets, D forms with d. Primed or numbered codes have the meaning given here. PyrS2″ = (S)-3-amino-1-((pent-4-en-1-yloxy)carbonyl)pyrrolidine-3-carboxylic acid (stapling residue), C=CCCCOC(=O)N1CC[C@@](N[*:1])(C(=O)[*:2])C1; B5(4) = 2,2-bis(4-pentenyl)glycine = 2-amino-2-(pent-4-en-1-yl)hept-6-enoic acid (stitching residue), C=CCCCC(CCCC=C)(N[*:1])C(=O)[*:2]; Phe(3-COOH) = N[C@@H](Cc1cccc(C(=O)O)c1)C(=O)O; Bta = N[C@@H](Cc1csc2ccccc12)C(=O)O; αAllylPro = C=CC[C@@]1(C(=O)O)CCCN1; tBuAla = CC(C)(C)C[C@H](N)C(=O)O; 3Thi = N[C@@H](Cc1ccsc1)C(=O)O; BnBoroleK = not defined here; PyrS2(4) = not defined here; TfeGA″ = not defined here; Nle = CCCC[C@H](N)C(=O)O
measure: NanoBRET Abs IC50 (µM)
Note: unit µM is implicit; provide only the numeric part.

# return recorded NanoBRET Abs IC50 for entry Ac-[αAllylPro]D[tBuAla][B5(4)]D[Phe(3-COOH)][Nle]AFL[PyrS2″][3Thi][Bta]V-NH2 (staple 1-4, 4-11) [I-2189]
33.4

# return recorded NanoBRET Abs IC50 for entry Ac-[αAllylPro]D[tBuAla][B5(4)]D[Phe(3-COOH)][Me2Asn]AFL[PyrS2(4)][3Thi][Bta]A-NH2 (staple 1-4, 4-11; reading uncertain; also: printed as Ac-PL3-Asp-Npg-B5-Asp-3COOHF-Me2Asn-Ala-Phe-Leu-PyrS2-3Thi-BztA-Ala-NH2) [I-2188]
7.6

# return recorded NanoBRET Abs IC50 for entry Ac-[αAllylPro]D[tBuAla][B5(4)]D[TfeGA″]AAFL[PyrS2(4)][3Thi][Bta][BnBoroleK]-NH2 (staple 1-4, 4-11; reading uncertain; also: later-eluting HPLC isomer peak) [I-2187]
10.8
